Some binders, each annotated with its measured ranking order top (1) to bottom (5), myostatin competition ELISA.
- SYSTEM_UNDER_TEST: T1, mature myostatin (recombinant, dimeric) (mouse polyprotein used for in-house …, UniProt O08689 268-376)
- T1 construct: also called GDF-8; recombinant myostatin
- T1 sequence: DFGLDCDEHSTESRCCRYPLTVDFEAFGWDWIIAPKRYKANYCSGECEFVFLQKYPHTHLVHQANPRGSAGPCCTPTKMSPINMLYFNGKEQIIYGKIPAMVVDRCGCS
- ASSAY_NAME: competition ELISA, directly coated myostatin, competitor 10B3
Simply state the number, no unit and no words.

Some entries whose results are on file:
BINDER	MEASURED_VALUE
H2L2-C91S_P100B_F (antibody, human IgG1, kappa, V domains shown) VH: QVQLVQSGAEVKKPGASVKVSCKASGYSFTGYFMHWVRQAPGQGLEWMGNIYPYNGVSNYNQRFKARVTMTTDTSTSTAYMELRSLRSDDTAVYYCARRYYYGTGFADWYFDVWGQGTLVTVSS VL: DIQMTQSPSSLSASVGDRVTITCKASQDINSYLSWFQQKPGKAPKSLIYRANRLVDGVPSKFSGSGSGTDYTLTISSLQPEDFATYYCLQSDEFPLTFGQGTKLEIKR	1
H2L2-C91S_V102S (antibody, human IgG1, kappa, name in Kabat numbering, V domains shown) VH: QVQLVQSGAEVKKPGASVKVSCKASGYSFTGYFMHWVRQAPGQGLEWMGNIYPYNGVSNYNQRFKARVTMTTDTSTSTAYMELRSLRSDDTAVYYCARRYYYGTGPADWYFDSWGQGTLVTVSS VL: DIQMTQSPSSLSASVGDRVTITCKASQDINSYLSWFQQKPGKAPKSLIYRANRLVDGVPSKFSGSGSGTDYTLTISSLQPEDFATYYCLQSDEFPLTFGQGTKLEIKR	4

Kindly consider the entry below.
Quick note, ranking order top (1) to bottom (5), myostatin competition ELISA for H2L2-C91S_V102N (antibody, human IgG1, kappa, name in Kabat numbering, V domains shown) VH: QVQLVQSGAEVKKPGASVKVSCKASGYSFTGYFMHWVRQAPGQGLEWMGNIYPYNGVSNYNQRFKARVTMTTDTSTSTAYMELRSLRSDDTAVYYCARRYYYGTGPADWYFDNWGQGTLVTVSS VL: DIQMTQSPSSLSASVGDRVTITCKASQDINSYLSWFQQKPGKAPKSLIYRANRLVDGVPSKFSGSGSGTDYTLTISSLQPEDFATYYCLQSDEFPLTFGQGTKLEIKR landed at 3
